meta.source: PubChem BioAssay AID1645868

IC50: recorded values
target: OTU domain-containing protein 3 (Homo sapiens); experiment: Validation of screening hits, potency titration, in vitro enzymatic, OTU domain-containing protein 3 DUB inhibitors (AID 1645868); settings: purified OTUD3, ubiquitin-rhodamine cleavage fluorescence, 2 h
The source made the active and inactive calls.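 How the source made its calls: active means maximal percent inhibition of the deubiquitinase OTUD3 of at least 30% across the tested doses; inactive means the rest.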

Here are 3 molecules together with their reported answers.
O=C(CN1CCCc2ccccc21)Nc1ccc(N2CCOCC2)cc1: > 50 µM (inactive)
COc1ccc(-c2nc3n(n2)C(c2cccc(O)c2)C2=C(CCCC2=O)N3)cc1 (stereo not drawn): > 50 µM (inactive)
Cn1c2ccccc2c2ncn(Cc3ccc(F)cc3)c(=O)c21: > 50 µM (inactive)

Data point: COc1ccc2c(c1)c(N1CCCC1=O)c(C(=O)NCc1cccc(OC)c1OC)n2C ; IC50 = > 50 µM (inactive)

Data point: CCCCNc1nc2c(-c3ccccc3)nnn2c2ccccc12 ; IC50 = > 50 µM (inactive)

----------
biological target: OTU domain-containing protein 3 (Homo sapiens) (UniProt Q5T2D3); assay: Validation of screening hits, potency titration, in vitro enzymatic, OTU domain-containing protein 3 DUB inhibitors (AID 1645868); conditions: purified OTUD3, ubiquitin-rhodamine cleavage fluorescence, 2 h
Sequence (Q5T2D3 whole entry, looked up, the tested form may be a part): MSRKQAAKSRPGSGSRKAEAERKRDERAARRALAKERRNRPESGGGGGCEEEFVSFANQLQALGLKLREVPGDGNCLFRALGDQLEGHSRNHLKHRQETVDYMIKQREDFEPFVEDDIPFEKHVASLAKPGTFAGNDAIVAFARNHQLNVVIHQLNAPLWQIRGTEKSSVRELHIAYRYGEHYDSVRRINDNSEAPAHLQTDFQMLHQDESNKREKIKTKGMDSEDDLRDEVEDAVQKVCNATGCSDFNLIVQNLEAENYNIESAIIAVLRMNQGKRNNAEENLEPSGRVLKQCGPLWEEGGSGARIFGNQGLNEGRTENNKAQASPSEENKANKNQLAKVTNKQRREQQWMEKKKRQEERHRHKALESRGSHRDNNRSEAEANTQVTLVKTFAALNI
Active and inactive are the calls of the source.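 Rule for the calls: active = maximal percent inhibition of the deubiquitinase OTUD3 of at least 30% across the tested doses; inactive = the rest.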
Hi there, use one of these labels in your reply, thanks! Y = active, N = inactive

Answered examples (4):
CC1=C(c2ccc(C)c(C)c2)S(=O)(=O)NC1=NCC(=O)NCCCc1ccccc1: Y
O=C1c2c(O)c(Cl)cc3c2[C@@]2(Oc4cc(Cl)c(O)c5c4[C@]3(O2)[C@@H]2O[C@@H]2C5=O)[C@@H]2O[C@H]12: Y
CN1C(=O)[C@]23CC4=CC=C[C@H](O)[C@H]4N2C(=O)[C@@]1(CO)SS3: N
Cc1ccc(Cn2cc(-c3noc(-c4ccncc4)n3)nn2)cc1: N

Entry CCOc1ccc2[nH]c3c(=O)n(CCc4ccc(OC)cc4)cnc3c2c1 : call = ?
Y

----------
biological target: OTU domain-containing protein 3 (Homo sapiens); assay: Validation of screening hits, potency titration, in vitro enzymatic, OTU domain-containing protein 3 DUB inhibitors (AID 1645868); conditions: purified OTUD3, ubiquitin-rhodamine cleavage fluorescence, 2 h
measure: IC50

Param item: COc1ccc(CNC(=O)c2ccccc2N2C(=O)N3CCc4c([nH]c5ccccc45)[C@@]3(C)C2=O)cc1 ; param system: OTU domain-containing protein 3 (Homo sapiens); output IC50: 42.1 µM

----------
target: OTU domain-containing protein 3 (Homo sapiens) (UniProt Q5T2D3); assay: Validation of screening hits, potency titration, in vitro enzymatic, OTU domain-containing protein 3 DUB inhibitors (AID 1645868); details: purified OTUD3, ubiquitin-rhodamine cleavage fluorescence, 2 h
Activity calls are given as the source filed them.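 Rule for the calls: active = maximal percent inhibition of the deubiquitinase OTUD3 of at least 30% across the tested doses; inactive = the rest.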
IC50: recorded values

O=C(Cn1cc(C(=O)C(F)(F)F)c2ccccc21)N1CCc2ccccc21: 4.98 µM
Cc1ccc(C)c(S(=O)(=O)N2CCN(c3ccc4nnc(-c5ccco5)n4n3)CC2)c1: > 50 µM (inactive)
Cc1ccccc1-c1noc(-c2ccccc2OCC(=O)NC(C)C)n1: > 50 µM (inactive)
Cc1c(C)n(-c2ccccc2)c2ncn(CC(=O)NC(C)c3ccccc3)c(=O)c12 (stereo unspecified): 21 µM
CCOC(=O)c1cc2c(ccn2C)n1CC(=O)N1CCC(C)CC1: > 50 µM (inactive)

Param item: COc1cccc2cccc(O)c12 ; param system: OTU domain-containing protein 3 (Homo sapiens) (UniProt Q5T2D3); output IC50: > 50 µM (inactive)

Param item: CN(C)c1cccc(C(=O)Nc2cc(-c3cccnc3)no2)c1 ; param system: OTU domain-containing protein 3 (Homo sapiens) (UniProt Q5T2D3); output IC50: 35.8 µM

Param item: COc1ccc(/C=C\c2nccc3c2[nH]c2ccccc23)cc1 ; param system: OTU domain-containing protein 3 (Homo sapiens) (UniProt Q5T2D3); output IC50: > 50 µM (inactive)

Param item: COc1cc(NC(=O)COC(=O)Cn2cnc3ccccc32)cc(OC)c1 ; param system: OTU domain-containing protein 3 (Homo sapiens) (UniProt Q5T2D3); output IC50: > 50 µM (inactive)

Param item: COc1ccc(COc2ccc3c(C)c(CC(=O)N4CC[C@@]5(O)CCCC[C@H]5C4)c(=O)oc3c2)cc1 ; param system: OTU domain-containing protein 3 (Homo sapiens) (UniProt Q5T2D3); output IC50: 4.62 µM

Param item: O=C(O)c1nccnc1C(=O)N1CCc2ccccc2C1 ; param system: OTU domain-containing protein 3 (Homo sapiens) (UniProt Q5T2D3); output IC50: > 50 µM (inactive)
